As a worked illustration, we turn to Ki data collected for Human D2R (Homo sapiens, UniProt P14416).
Kindly provide the numeric value in µM only, without the unit symbol.

{"compound": "CN(CCCCC(=O)Nc1nc2c(Cl)cccc2s1)C1Cc2ccccc2C1 [Compound 19]", "quantity-unit": "µM", "endpoint-result": 0.51}
{"compound": "CCCN(CCCCC(=O)Nc1nc2c(F)cccc2s1)C1Cc2ccccc2C1 [Compound 23]", "quantity-unit": "µM", "endpoint-result": 0.2}
{"compound": "Cc1nc(NC(=O)CCCCN(C)C2Cc3ccccc3C2)sc1C [Compound 5]", "quantity-unit": "µM", "endpoint-result": 0.68}
{"compound": "CCCN(CCCCC(=O)Nc1nc2c(OC)ccc(OC)c2s1)C1Cc2ccccc2C1 [Compound 30]", "quantity-unit": "µM", "endpoint-result": 0.37}

# context switch: different compound, same Ki
Sure, the documented Ki for CN(CCCCC(=O)Nc1nc2c(Br)cccc2s1)C1Cc2ccccc2C1 [Compound 20] is 0.34
